Below is a list of entries, each paired with its recorded growth inhibition value.
assay: NCI Yeast Anticancer Drug Screen. Data for the rad50 strain (AID 155);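 further: 0% = growth of vehicle-only cultures of the same strain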; settings: S. cerevisiae rad50 strain growth inhibition; at 50.0 µM; hits give high values
This is part of a sample that, as a whole, favours compounds with a hit. Of some 79,000 tested, about 15% had one in any assay. The source made the active and inactive calls. No stated cut-off is given here; in the data, active means growth inhibition above about 70%; inactive means the rest.

Would you please look over these solved cases?
>>> result("CCOC(=O)Nc1cc([N+](C)(C)C)ccc1OCCOc1ccc([N+](C)(C)C)cc1")
"-0.4% (inactive)"
>>> result("O=C(O)c1cccc(N=Nc2ccccc2)c1O")
"22.1% (inactive)"

Query: growth inhibition; subject: Cc1cc(C23OC4COC(C)(C)OC4C2OC(C)(C)O3)nc2ccccc12 (configuration not stated) -1.35% (inactive)

Query: growth inhibition; subject: "Cn1c(-c2ccc(-c3cc(-c4cccs4)c(-c4cccs4)n3C)cc2)cc(-c2cccs2)c1-c1cccs1" 11.7% (inactive)

Query: growth inhibition; subject: "CCOC(=O)N1CN(C(=O)OCC)CN(C(=O)OCC)C1" 15.7% (inactive)

Query: growth inhibition; subject: "CC(C)(C)OC(=O)N(CCCCNC(=O)c1ccccc1)CCCNC(=O)c1ccccc1" 13.4% (inactive)

Query: growth inhibition; subject: "O=C(Cn1c2c(c3ccccc31)CCCC2)N1CCOCC1" -19.3% (inactive)

Values from PubChem BioAssay (NCI)
